Would you kindly list metabolised at 1 h for each of these compounds?
- assay.text: Compound was tested for percent hydrolysis in whole blood after a time interval of 60.0 min
- Assay type: ADME, organism-based
- protocol.conditions: rat, read-out: Hydrolysis
Numbers only, in %.

Guide cases for metabolised at 1 h, answers given:
- compound: "CC(OC(=O)CCCC(=O)O)N1C(=O)NC(c2ccccc2)(c2ccccc2)C1=O (centres undefined)"
  metabolised at 1 h [%]: 39.6
- compound: "CC(OC(=O)CCC(=O)O)N1C(=O)NC(c2ccccc2)(c2ccccc2)C1=O (centres undefined)"
  metabolised at 1 h [%]: 59.6
- compound: "O=C(CN1CCOCC1)OCN1C(=O)NC(c2ccccc2)(c2ccccc2)C1=O"
  metabolised at 1 h [%]: 99.3

Note: attention shifts to another entry.
Return reported metabolised at 1 h. Input compound: O=C1NC(c2ccccc2)(c2ccccc2)C(=O)N1COP(=O)(O)O [FOSPHENYTOIN SODIUM]
87.5

###

- assay.text: Compound was tested for percent hydrolysis in whole blood, after a time interval of 15.0 min
- Type: ADME, organism-based
- protocol.conditions: rat, read-out: Hydrolysis
assay.readout: metabolised at 0.25 h (%)
Numbers only, in %.

- compound: "CC(OC(=O)CCC(=O)O)N1C(=O)NC(c2ccccc2)(c2ccccc2)C1=O (centres undefined)"
  assay.readout: "metabolised at 0.25 h"
  endpoint.result: 55.9
- compound: "O=C1NC(c2ccccc2)(c2ccccc2)C(=O)N1COP(=O)(O)O [FOSPHENYTOIN SODIUM]"
  assay.readout: "metabolised at 0.25 h"
  endpoint.result: 45.4
- compound: "CC(OC(=O)CCCC(=O)O)N1C(=O)NC(c2ccccc2)(c2ccccc2)C1=O (centres undefined)"
  assay.readout: "metabolised at 0.25 h"
  endpoint.result: 37.2

Return reported metabolised at 0.25 h. Input compound: O=C(CN1CCOCC1)OCN1C(=O)NC(c2ccccc2)(c2ccccc2)C1=O
93.6

###

- assay.text: Compound was tested for percent hydrolysis in whole blood after a time interval of 2.0 min
- Format: ADME, organism-based
- protocol.conditions: rat, read-out: Hydrolysis
Would you kindly list metabolised at 2 min for each of these compounds?
One number for each entry, in %.

Guide cases for metabolised at 2 min, answers given:
- compound: "O=C(CN1CCOCC1)OCN1C(=O)NC(c2ccccc2)(c2ccccc2)C1=O"
  endpoint.result: 80.1
- compound: "O=C(CN1CCCCC1)OCN1C(=O)NC(c2ccccc2)(c2ccccc2)C1=O"
  endpoint.result: 96.5
- compound: "CC(OC(=O)CCCC(=O)O)N1C(=O)NC(c2ccccc2)(c2ccccc2)C1=O (stereo not given)"
  endpoint.result: 26.7
- compound: "O=C1NC(c2ccccc2)(c2ccccc2)C(=O)N1COP(=O)(O)O [FOSPHENYTOIN SODIUM]"
  endpoint.result: 11.6

Note: attention shifts to another entry.
Return reported metabolised at 2 min. Input compound: CC(OC(=O)CCC(=O)O)N1C(=O)NC(c2ccccc2)(c2ccccc2)C1=O (stereo not given)
42.4

###

Would you kindly list metabolised at 5 min for each of these molecules?
- assay.text: Compound was tested for percent hydrolysis in whole blood after a time interval of 5.0 min
- Type: ADME, organism-based
- protocol.conditions: rat, read-out: Hydrolysis
Give bare numbers, in %.

- chemical.structure: "O=C(CN1CCOCC1)OCN1C(=O)NC(c2ccccc2)(c2ccccc2)C1=O"
  assay.readout: "metabolised at 5 min"
  endpoint.result: 91

Note: attention shifts to another entry.
Return reported metabolised at 5 min. Input molecule: O=C(CN1CCCCC1)OCN1C(=O)NC(c2ccccc2)(c2ccccc2)C1=O
97.5

###

Would you kindly list metabolised at 7 min for each of these compounds?
- assay.text: Compound was tested for percent hydrolysis in whole blood after a time interval of 7.0 min
- Format: ADME, organism-based
- protocol.conditions: rat, read-out: Hydrolysis
Give bare numbers, in %.

- compound: "CC(OC(=O)CCCC(=O)O)N1C(=O)NC(c2ccccc2)(c2ccccc2)C1=O (stereo not drawn)"
  metabolised at 7 min [%]: 36.9

Record metabolised at 7 min per entry; entries follow.
1. O=C1NC(c2ccccc2)(c2ccccc2)C(=O)N1COP(=O)(O)O [FOSPHENYTOIN SODIUM]
2. CC(OC(=O)CCC(=O)O)N1C(=O)NC(c2ccccc2)(c2ccccc2)C1=O (stereo not drawn)

1: 25; 2: 52.8

###

Would you kindly list metabolised at 0.5 min for each of these compounds?
- assay.text: Compound was tested for percent hydrolysis in whole blood after a time interval of 0.5 min
- Type: ADME, organism-based
- protocol.conditions: rat, read-out: Hydrolysis
One number for each entry, in %.

Guide cases for metabolised at 0.5 min, answers given:
- compound: "O=C(CN1CCOCC1)OCN1C(=O)NC(c2ccccc2)(c2ccccc2)C1=O"
  units.text: "%"
  endpoint.result: 28.7
- compound: "CC(OC(=O)CCCC(=O)O)N1C(=O)NC(c2ccccc2)(c2ccccc2)C1=O (stereo not given)"
  units.text: "%"
  endpoint.result: 15
- compound: "O=C1NC(c2ccccc2)(c2ccccc2)C(=O)N1COP(=O)(O)O [FOSPHENYTOIN SODIUM]"
  units.text: "%"
  endpoint.result: 7.95

Record metabolised at 0.5 min per entry; entries follow.
1. CC(OC(=O)CCC(=O)O)N1C(=O)NC(c2ccccc2)(c2ccccc2)C1=O (stereo not given)
2. O=C(CN1CCCCC1)OCN1C(=O)NC(c2ccccc2)(c2ccccc2)C1=O

1. 25.7
2. 49.2
